Experiment: Transport in the human intestinal Caco-2 cell monolayer model
Type: in vitro ADME
Conditions: human, Caco-2; basolateral to apical, 50 µM, incubation up to 90 min, n = 4
Observation type: Papp B→A at 90 min, 50 µM (×10⁻⁶ cm/s)

Use the examples below as a reference point.
Query: Can you look up the measured Papp B→A at 90 min, 50 µM of COc1cc(/C=C/C(=O)OC(C)C)ccc1O [Compound 6, isopropylferulate] for me?
Response: 13.8

Query: Item: CC/C(C)=C/CCOC(=O)/C=C/c1ccc(O)c(OC)c1 [Compound 1, 4-methyl-3-trans-hexenylferulate]
Response: 0.62

1. COc1cc(/C=C/C(=O)OCCc2ccccc2)ccc1O [Compound 9, phenethylferulate]
2. COc1ccc(CCOC(=O)/C=C/c2ccc(O)c(OC)c2)cc1 [Compound 8, 4-methoxyphenethylferulate]
3. COc1cc(/C=C/C(=O)OC2CC3CCC2(C)C3(C)C)ccc1O (stereo not drawn) [Compound 5, (−)-bornylferulate]
4. O=C(OCc1ccccc1)c1ccccc1O [Compound 2, benzylsalicylate]
5. COc1ccc(C(=O)OCCc2ccc(O)cc2)cc1 [Compound 4, p-hydroxyphenethyl anisate]
Query: Order each entry by recorded Papp B→A at 90 min, 50 µM, climbing from the minimum. Field: ranking. Enter the labels in the order requested.
Response: 5, 3, 1, 2, 4
(5: 0.05 ×10⁻⁶ cm/s, 3: 0.13 ×10⁻⁶ cm/s, 1: 0.7 ×10⁻⁶ cm/s, 2: 2.55 ×10⁻⁶ cm/s, 4: 13.4 ×10⁻⁶ cm/s)

---

Test: Transport in the human intestinal Caco-2 cell monolayer model
Type: in vitro ADME
Conditions: human, Caco-2; ratio of Papp BL→AP to Papp AP→BL
Observation type: efflux ratio at 90 min, 50 µM

Query: Can you look up the measured efflux ratio at 90 min, 50 µM of COc1cc(/C=C/C(=O)OC2CC3CCC2(C)C3(C)C)ccc1O (stereo not drawn) [Compound 5, (−)-bornylferulate] for me?
Response: 1.69

Query: Item: CC/C(C)=C/CCOC(=O)/C=C/c1ccc(O)c(OC)c1 [Compound 1, 4-methyl-3-trans-hexenylferulate]
Response: 1.24

Query: Item: COc1ccc(CCOC(=O)/C=C/c2ccc(O)c(OC)c2)cc1 [Compound 8, 4-methoxyphenethylferulate]
Response: 1.15

Query: Item: COc1cc(/C=C/C(=O)OCCc2ccccc2)ccc1O [Compound 9, phenethylferulate]
Response: 1.06

1. COc1cc(/C=C/C(=O)OC(C)C)ccc1O [Compound 6, isopropylferulate]
2. COc1ccc(C(=O)OCCc2ccc(O)cc2)cc1 [Compound 4, p-hydroxyphenethyl anisate]
Query: Kindly identify which of 1 and 2 has the larger recorded efflux ratio at 90 min, 50 µM value. Mark your answer with the label of the selected entry.
Response: 1

---

Assay: Transport in the human intestinal Caco-2 cell monolayer model
Type: in vitro ADME
Conditions: human, Caco-2, values as stated in text
Observation type: Papp A→B at 90 min, 50 µM

Use the examples below as a reference point.
Query: Can you look up the measured Papp A→B at 90 min, 50 µM of O=C(OCc1ccccc1)c1ccccc1O [Compound 2, benzylsalicylate] for me?
Response: > 10 ×10⁻⁶ cm/s

Query: Item: COc1cc(/C=C/C(=O)OCCc2ccccc2)ccc1O [Compound 9, phenethylferulate]
Response: < 1 ×10⁻⁶ cm/s

Query: Item: CC1(C)C2CCC1(C)C(OC(=O)C=Cc1ccccc1)C2 (stereo not drawn) [Compound 3, bornylcinnamate]
Response: < 0.1 ×10⁻⁶ cm/s

Query: Item: COc1ccc(CCOC(=O)/C=C/c2ccc(O)c(OC)c2)cc1 [Compound 8, 4-methoxyphenethylferulate]
Response: ~1 ×10⁻⁶ cm/s

Query: Item: CCCCCCCCCCCCCCCCCCCCCCCCCCCCCCOC(=O)/C=C/c1ccc(O)c(OC)c1
Response: < 0.1 ×10⁻⁶ cm/s

Then there is this compound:
Query: Can you look up the measured Papp A→B at 90 min, 50 µM of COc1ccc(C(=O)OCCc2ccc(O)cc2)cc1 [Compound 4, p-hydroxyphenethyl anisate] for me?
Response: < 1 ×10⁻⁶ cm/s

---

Assay: Transport in the human intestinal Caco-2 cell monolayer model
Assay type: in vitro ADME
Details: human, Caco-2, apical to basolateral, 50 µM, incubation up to 90 min, n = 4
Observation type: Papp A→B at 90 min, 50 µM (×10⁻⁶ cm/s)

A. CC/C(C)=C/CCOC(=O)/C=C/c1ccc(O)c(OC)c1 [Compound 1, 4-methyl-3-trans-hexenylferulate]
B. COc1ccc(CCOC(=O)/C=C/c2ccc(O)c(OC)c2)cc1 [Compound 8, 4-methoxyphenethylferulate]
Query: Kindly identify which of A and B has the larger recorded Papp A→B at 90 min, 50 µM value. Mark your answer with the label of the selected entry.
Response: B
(B: 2.21 ×10⁻⁶ cm/s, A: 0.5 ×10⁻⁶ cm/s)

a. COc1cc(/C=C/C(=O)OCCc2ccccc2)ccc1O [Compound 9, phenethylferulate]
b. COc1cc(/C=C/C(=O)OC2CC3CCC2(C)C3(C)C)ccc1O (stereo not drawn) [Compound 5, (−)-bornylferulate]
c. O=C(OCc1ccccc1)c1ccccc1O [Compound 2, benzylsalicylate]
Query: Arrange these compounds by their Papp A→B at 90 min, 50 µM, starting with the largest number. Field: ranking. Enter the labels in the order requested.
Response: c, a, b

P. COc1cc(/C=C/C(=O)OC(C)C)ccc1O [Compound 6, isopropylferulate]
Q. COc1ccc(C(=O)OCCc2ccc(O)cc2)cc1 [Compound 4, p-hydroxyphenethyl anisate]
Query: When the recorded Papp A→B at 90 min, 50 µM values are compared, which is smaller: that of P or that of Q ? Mark your answer with the label of the selected entry.
Response: Q
(Q: 0.36 ×10⁻⁶ cm/s, P: 17.6 ×10⁻⁶ cm/s)

---

Experiment: Stability of the phenolic acid esters in HPLC method validation (Table S1)
Format: physicochemical
Conditions: QC 5 μM
Observation type: Stability (%)

Query: Can you look up the measured Stability of COc1cc(/C=C/C(=O)OCCc2ccccc2)ccc1O [Compound 9, phenethylferulate] for me?
Response: 92.26

Query: Item: COc1ccc(CCOC(=O)/C=C/c2ccc(O)c(OC)c2)cc1 [Compound 8, 4-methoxyphenethylferulate]
Response: 93.28

Query: Item: O=C(OCc1ccccc1)c1ccccc1O [Compound 2, benzylsalicylate]
Response: 98.84

Query: Item: CC/C(C)=C/CCOC(=O)/C=C/c1ccc(O)c(OC)c1 [Compound 1, 4-methyl-3-trans-hexenylferulate]
Response: 93.56

Query: Item: COc1cc(/C=C/C(=O)OC(C)C)ccc1O [Compound 6, isopropylferulate]
Response: 95.08

Query: Item: COc1cc(/C=C/C(=O)OC2CC3CCC2(C)C3(C)C)ccc1O (stereo not drawn) [Compound 5, (−)-bornylferulate]
Response: 96.29

Query: Item: COc1ccc(C(=O)OCCc2ccc(O)cc2)cc1 [Compound 4, p-hydroxyphenethyl anisate]
Response: 92.28
